Just for reference, the Immune Epitope Database (IEDB) is where these values come from.

# SYSTEM NAME: HLA-B*15:42
# ASSAY INFO: IEDB peptide-MHC binding, purified MHC/competitive/fluorescence; filed as Kd, often an IC50 or EC50 that approximates it; bounds were set here for any values at or beyond the usual limits of such assays
# RUN CONDITIONS: source organism: Pan troglodytes
TEST READOUT: Kd

Quick one: Kd of VMPPRTLLL ? ≥ 5 µM

----------
# SYSTEM NAME: HLA-B*15:02
# ASSAY INFO: IEDB peptide-MHC binding, purified MHC/competitive/fluorescence; filed as Kd, often an IC50 or EC50 that approximates it; bounds were set here for any values at or beyond the usual limits of such assays
# RUN CONDITIONS: source organism: Vibrio cholerae
TEST READOUT: Kd

Fill in the recorded Kd for this sequence, with HLA-B*15:02 as test system: WIGQTSHGW ≥ 20 µM

----------
# SYSTEM NAME: HLA-B*73:01
# ASSAY INFO: IEDB peptide-MHC binding, purified MHC/direct/fluorescence; filed as Kd, often an IC50 or EC50 that approximates it; bounds were set here for any values at or beyond the usual limits of such assays
# RUN CONDITIONS: source organism: Salmonella enterica subsp. enterica serovar Typhimurium str. LT2
pKd: −log10 of the molar value.
TEST READOUT: pKd

Quick one: pKd of RKAGVNQAK ? ≤ 4.70

----------
# SYSTEM NAME: HLA-A*03:01
# ASSAY INFO: IEDB peptide-MHC binding, purified MHC/direct/fluorescence; filed as Kd, often an IC50 or EC50 that approximates it; bounds were set here for any values at or beyond the usual limits of such assays
# RUN CONDITIONS: source organism: Giardia lamblia ATCC 50803
TEST READOUT: Kd

Return reported Kd values for all items listed beneath this line.
1. RTDPVIDNI
2. YLDMVLAFL
3. KVGVYKMHK

1: ≥ 20 µM; 2: ≥ 20 µM; 3: 0.163 µM

Return reported Kd values for all items listed beneath this line.
1. RLYPFGSYY
2. DEKPKVMEG

≤ 0.001 µM
≥ 20 µM

----------
# SYSTEM NAME: HLA-A*23:01
# ASSAY INFO: IEDB peptide-MHC binding, purified MHC/direct/fluorescence; filed as Kd, often an IC50 or EC50 that approximates it; bounds were set here for any values at or beyond the usual limits of such assays
# RUN CONDITIONS: source organism: Entamoeba histolytica HM-1:IMSS
pKd: −log10 of the molar value.
TEST READOUT: pKd

Fill in the recorded pKd for this sequence, with HLA-A*23:01 as test system: IESNPLFPV ≤ 4.70

----------
# SYSTEM NAME: HLA-B*15:01
# ASSAY INFO: IEDB peptide-MHC binding, purified MHC/competitive/fluorescence; filed as Kd, often an IC50 or EC50 that approximates it; bounds were set here for any values at or beyond the usual limits of such assays
# RUN CONDITIONS: source organism: Escherichia coli HS
TEST READOUT: Kd

Quick one: Kd of ISLWGSLLK ? ≥ 20 µM

----------
# SYSTEM NAME: HLA-A*23:01
# ASSAY INFO: IEDB peptide-MHC binding, purified MHC/competitive/radioactivity; filed as Kd, often an IC50 or EC50 that approximates it; bounds were set here for any values at or beyond the usual limits of such assays
# RUN CONDITIONS: source organism: Triticum aestivum
TEST READOUT: Kd

Quick one: Kd of KSQVLQQSTY ? ≥ 39 µM

----------
# SYSTEM NAME: HLA-A*23:01
# ASSAY INFO: IEDB peptide-MHC binding, purified MHC/direct/fluorescence; filed as Kd, often an IC50 or EC50 that approximates it; bounds were set here for any values at or beyond the usual limits of such assays
# RUN CONDITIONS: source organism: Campylobacter jejuni
TEST READOUT: Kd (nM)
One number for each entry, in nM.

Quick one: Kd of WFGHLASDW ? 340

----------
# SYSTEM NAME: HLA-A*68:01
# ASSAY INFO: IEDB peptide-MHC binding, purified MHC/competitive/radioactivity; filed as Kd, often an IC50 or EC50 that approximates it; bounds were set here for any values at or beyond the usual limits of such assays
# RUN CONDITIONS: source organism: Mammarenavirus lassaense
TEST READOUT: Kd

Recorded Kd, per entry:
INPUT SEQUENCE | TEST READOUT | REPORTED MEASUREMENT
ITFFQEVPH | Kd | 0.0725 µM
TCQGSEDIK | Kd | ≥ 30 µM

Continue with the sequence presented below.
Fill in the recorded Kd for this sequence, with HLA-A*68:01 as test system: DSCNANGCEH ≥ 70.1 µM

----------
Give measured pKd for each item. Keep answers brief.
# SYSTEM NAME: HLA-A*26:01
# ASSAY INFO: IEDB peptide-MHC binding, purified MHC/direct/fluorescence; filed as Kd, often an IC50 or EC50 that approximates it; bounds were set here for any values at or beyond the usual limits of such assays
# RUN CONDITIONS: source organism: Yersinia pestis CA88-4125
pKd: −log10 of the molar value.

INPUT SEQUENCE | pKd
SRWAISHWL | ≤ 4.70

Continue with the sequence presented below.
Quick one: pKd of RVFNGDDVK ? ≤ 4.70

----------
# SYSTEM NAME: HLA-C*04:01
# ASSAY INFO: IEDB peptide-MHC binding, purified MHC/direct/fluorescence; filed as Kd, often an IC50 or EC50 that approximates it; bounds were set here for any values at or beyond the usual limits of such assays
# RUN CONDITIONS: source organism: human gammaherpesvirus 4
pKd: −log10 of the molar value.
TEST READOUT: pKd

Quick one: pKd of RSDEYVAYY ? ≤ 4.70

----------
# SYSTEM NAME: HLA-B*46:01
# ASSAY INFO: IEDB peptide-MHC binding, purified MHC/competitive/fluorescence; filed as Kd, often an IC50 or EC50 that approximates it; bounds were set here for any values at or beyond the usual limits of such assays
# RUN CONDITIONS: source organism: Araucaria virus
TEST READOUT: Kd

Quick one: Kd of AQKLATKPV ? ≥ 20 µM

----------
# SYSTEM NAME: HLA-A*01:01
# ASSAY INFO: IEDB peptide-MHC binding, purified MHC/direct/fluorescence; filed as Kd, often an IC50 or EC50 that approximates it; bounds were set here for any values at or beyond the usual limits of such assays
# RUN CONDITIONS: source organism: Vibrio vulnificus YJ016
pKd: −log10 of the molar value.
TEST READOUT: pKd

INPUT SEQUENCE | REPORTED MEASUREMENT
WHQARFEEL | ≤ 4.70

Continue with the sequence presented below.
Fill in the recorded pKd for this sequence, with HLA-A*01:01 as test system: GWPDNYCEW ≤ 4.70

----------
# SYSTEM NAME: HLA-A*03:01
# ASSAY INFO: IEDB peptide-MHC binding, purified MHC/competitive/fluorescence; filed as Kd, often an IC50 or EC50 that approximates it; bounds were set here for any values at or beyond the usual limits of such assays
# RUN CONDITIONS: source organism: Escherichia coli HS
TEST READOUT: pKd
One number for each entry, as −log10 of the molar value.

Quick one: pKd of ISLWGSLLK ? 7.47

----------
# SYSTEM NAME: HLA-A*68:02
# ASSAY INFO: IEDB peptide-MHC binding, purified MHC/direct/fluorescence; filed as Kd, often an IC50 or EC50 that approximates it; bounds were set here for any values at or beyond the usual limits of such assays
# RUN CONDITIONS: source organism: Araucaria virus
pKd: −log10 of the molar value.
TEST READOUT: pKd

Quick one: pKd of AQKLATKPV ? ≤ 4.70

----------
# SYSTEM NAME: HLA-B*35:01
# ASSAY INFO: IEDB peptide-MHC binding, purified MHC/competitive/radioactivity; filed as Kd, often an IC50 or EC50 that approximates it; bounds were set here for any values at or beyond the usual limits of such assays
# RUN CONDITIONS: source organism: Vaccinia virus WR
Binary call on Kd with cut-off 600 nM: strictly below means condition met, and equality or higher means condition not met.

Illustrative cases are given below, each with its answer.
INPUT SEQUENCE | GROUP LABEL
IPIGMQFDKV | condition not met
PPCQCTVQEF | condition not met
KPIMSMGDII | condition not met
TPLISFFGLF | condition met

Say whether its Kd is strictly beneath 600 nM. Entry: CTFMIITSTK condition not met

Say whether its Kd is strictly beneath 600 nM. Entry: LPEETNIGCA condition not met

Say whether its Kd is strictly beneath 600 nM. Entry: IPSTVKTNLY condition met

Say whether its Kd is strictly beneath 600 nM. Entry: MPTDMLKLF condition met

Say whether its Kd is strictly beneath 600 nM. Entry: STCYVFGLY condition not met

Say whether its Kd is strictly beneath 600 nM. Entry: QPEKEIPEY condition met

Say whether its Kd is strictly beneath 600 nM. Entry: VPEFAKQYV condition not met
